Please respond with reported melting point for every item in the list.
Counter-ions that a name gives are not always drawn.

Illustrative cases are given below, each with its answer.
INSERT INTO results (molecule, value) VALUES
  ('COc1cc2c(cc1OC)CN(C(=O)C1CCCN(CC(=O)Nc3ccc4c(c3)OCO4)C1)CC2 (racemic) (as salt: oxalate)', '157 to 159 °C'),
  ('COc1cc(OC)cc(C(=O)NCCN2CCCC(C(=O)N3CCc4cc(OC)c(OC)cc4C3)C2)c1 (centres unmarked) (as salt: salt)', '166 to 167 °C'),
  ('COc1cc2c(cc1OC)CN(C(=O)C1CCCN(CCNC(=O)c3ccc(F)c(C(F)(F)F)c3)C1)CC2 (centres unmarked) (as salt: salt)', '186 to 188 °C');

Would you mind giving melting point for every molecule in the list below?
1. COc1ccc(NC(=O)CCN2CCCC(C(=O)N3CCc4cc(OC)c(OC)cc4C3)C2)cc1OC (racemic) (as salt: HCl)
2. COc1ccc(C(=O)NCCN2CCC=C(C(=O)N3CCc4cc(OC)c(OC)cc4C3)C2)cc1
3. COc1cccc(C(=O)NCCN2CCCC(C(=O)N3CCc4cc(OC)c(OC)cc4C3)C2)c1 (racemic) (as salt: oxalate)
4. COc1ccc2c(c1)CCN(C(=O)C1CCCN(CCC(=O)Nc3ccc4c(c3)OCO4)C1)C2 (centres unmarked) (as salt: salt)
5. COc1cc2c(cc1OC)CN(C(=O)C1CCCN(CCC(=O)Nc3ccc4ncsc4c3)C1)CC2 (centres unmarked) (as salt: HCl)

*A*
1: 154 to 156 °C; 2: 153 to 154 °C; 3: 120 to 123 °C; 4: 179 to 180 °C; 5: 183 to 185 °C

For every item below, please supply its melting point.
1. COc1cc2c(cc1OC)CN(C(=O)C1CN(CCNC(=O)c3ccc4c(c3)OCO4)C1)CC2
2. COc1cc2c(cc1OC)CN(C(=O)C1CCCN(CCC(=O)Nc3ccc4c(c3)OCO4)C1)CCC2 (centres unmarked) (as salt: salt)
3. COc1cc2c(cc1OC)CN(C(=O)C1CCCN(CCNC(=O)c3ccc4c(c3)N(C)C(=O)CO4)C1)CC2 (centres unmarked) (as salt: salt)

*A*
["131 to 133 °C", "180 to 181 °C", "124 to 133 °C"]

Dear colleague, could you please provide melting point for the molecules listed below?
1. COc1cc2c(cc1OC)C(C)(C)CN(C(=O)C1CCCN(CCNC(=O)c3ccc4c(c3)OCO4)C1)C2 (centres unmarked) (as salt: salt)
2. COc1cc(NC(=O)CCN2CCCC(C(=O)N3CCc4cc(OC)c(OC)cc4C3)C2)ccc1C (centres unmarked) (as salt: HCl)
3. COc1ccc(NC(=O)CCN2CCCC(C(=O)N3CCc4cc(OC)c(OC)cc4C3)C2)cc1 (racemic) (as salt: HCl)

*A*
1. 138 to 140 °C
2. 171 to 173 °C
3. 211 to 213 °C
